Every entry's value here was drawn from patent US20250281406A1.

Assay: Particle size and polydispersity index of lipid nanoparticles by dynamic light scattering
Assay type: physicochemical
Conditions: MO nanoparticles with amino lipid at RMO 0.5, Pluronic F-127, 25° C., mean ± SD n=3
PROPERTY_NAME: PDI of the formulations

Recorded PDI of the formulations, per entry:
CCCCCCCC/C=C\CCCCCCCC(=O)NCc1ccncc1 [Lipid-10, N-(pyridine-4-ylmethyl)oleamide] ... 0.25
CCCCCCCC/C=C\CCCCCCCC(=O)NCc1ccccn1 ... 0.21

(1) CCCCCCCC/C=C\CCCCCCCC(=O)NCCN1CCCCC1 [Lipid-13, N-(2-(piperidin-1-yl)ethyl)oleamide]
(2) CCCCCCCC/C=C\CCCCCCCC(=O)NCCN1CCOCC1
Min PDI of the formulations? 1 | 2 Answer = label. 1

---

Assay: Particle size and polydispersity index of lipid nanoparticles by dynamic light scattering
Type: physicochemical
Conditions: MO nanoparticles with amino lipid at RMO 0.4, Pluronic F-127, 25° C., mean ± SD n=3
PROPERTY_NAME: PDI of the formulations

Record excerpt, results attached:
CCCCCCCC/C=C\CCCCCCCC(=O)NCc1ccncc1 [Lipid-10, N-(pyridine-4-ylmethyl)oleamide] ... 0.24
CCCCCCCC/C=C\CCCCCCCC(=O)NCc1ccccn1 [Lipid-11] ... 0.10

(1) CCCCCCCC/C=C\CCCCCCCC(=O)NCCN1CCCCC1 [Lipid-13, N-(2-(piperidin-1-yl)ethyl)oleamide]
(2) CCCCCCCC/C=C\CCCCCCCC(=O)NCCN1CCOCC1 [Lipid-12]
Of 1 and 2 , whose reported PDI of the formulations is numerically smaller? Record your answer as the label of the chosen record. 1
(1: 0.15, 2: 0.40)

---

Assay: Particle size and polydispersity index of lipid nanoparticles by dynamic light scattering
Format: physicochemical
Settings: MO nanoparticles with amino lipid at RMO 0.25, Pluronic F-127, 25° C., mean ± SD n=3
Method: The average hydrodynamic diameter and polydispersity index (PDI) of lipid nanoparticles were measured by dynamic light scattering (DLS) using a Malvern Zetasizer Nano ZS (Malvern Instruments, UK). All measurements were performed at 25° C. (n=3) by loading the lipid formulations (10 μL) into clear 96-well half-area polystyrene plates and diluting with 190 μL milli-Q water (Zhai et al. 2015).
PROPERTY_NAME: PDI of the formulations

(I) CCCCCCCC/C=C\CCCCCCCC(=O)NCCN1CCOCC1
(II) CCCCCCCC/C=C\CCCCCCCC(=O)NCc1ccncc1 [Lipid-10, N-(pyridine-4-ylmethyl)oleamide]
Please tell me which of the two, I or II , has the higher reported PDI of the formulations value. Response format: the label of the selected entry. II
(II: 0.39, I: 0.25)

(A) CCCCCCCC/C=C\CCCCCCCC(=O)NCc1ccccn1
(B) CCCCCCCC/C=C\CCCCCCCC(=O)NCCN1CCCCC1 [Lipid-13, N-(2-(piperidin-1-yl)ethyl)oleamide]
Pick one: A or B . Which has the bigger PDI of the formulations number? Reply with the label of the item you choose. A
(A: 0.28, B: 0.19)

---

Assay: Particle size and polydispersity index of lipid nanoparticles by dynamic light scattering
Assay type: physicochemical
Conditions: MO nanoparticles with amino lipid at RMO 0.25, Pluronic F-127, 25° C., mean ± SD n=3
PROPERTY_NAME: Particle Size in nm (nm)

The examples below pair each entry with its known result.
CCCCCCCC/C=C\CCCCCCCC(=O)NCc1ccncc1 [Lipid-10, N-(pyridine-4-ylmethyl)oleamide] ... 250
CCCCCCCC/C=C\CCCCCCCC(=O)NCCN1CCOCC1 [Lipid-12] ... 191

(P) CCCCCCCC/C=C\CCCCCCCC(=O)NCCN1CCCCC1 [Lipid-13, N-(2-(piperidin-1-yl)ethyl)oleamide]
(Q) CCCCCCCC/C=C\CCCCCCCC(=O)NCc1ccccn1 [Lipid-11]
Please state the entry with greater Particle Size in nm among P and Q . When you have decided, please share the label of that item. Q
